- TARGET_OF_ASSAY: MEK
- ASSAY_OVERVIEW: Cascade assay for inhibitors of the MAP kinase pathway (In Vitro)
pIC50: −log10 of the molar value.
READOUT_TYPE: pIC50

O=C(O)c1ccc(F)cc1Nc1ccc(I)cc1F
7.29
CCN(CC)C(=O)c1cc([N+](=O)[O-])ccc1Nc1ccc(I)cc1C
5.76
Cc1cc(I)ccc1Nc1ccccc1-c1nnn[nH]1
5.92
C=CCNC(=O)c1cc(Cl)ccc1Nc1ccc(I)cc1C
5.54
Cc1cc(I)ccc1Nc1c(F)cc(C(=O)O)c(F)c1F
5.80

[a] O=C(O)c1ccc([N+](=O)[O-])cc1Nc1ccc(I)cc1Cl
[b] Cc1cc(I)ccc1Nc1ccc(Cl)cc1C(=O)NCCN1CCCC1
[c] Cc1ccc(Nc2ccc(I)cc2C)c(C(=O)O)c1
Ask | Give the ascending ranking of the items by reported pIC50. I'd appreciate it if you listed the labels in the requested order.
Reply | c, b, a
(c: 5.44, b: 6.43, a: 7.51)

[a] Cc1cc(I)ccc1Nc1ccc(Cl)cc1C(=O)N(C)C
[b] Cc1cc(I)ccc1Nc1ccc([N+](=O)[O-])cc1C(=O)NC1CCCCC1
[c] O=C(O)c1cc([N+](=O)[O-])ccc1Nc1ccc(I)cc1F
Ask | Sort low-to-high on pIC50, please. # respond with the labels, arranged in the requested order
Reply | a, b, c
